Tested on: Vero E6 infected with SARS-CoV-2
Assay: inhibition of SARS-CoV-2 cytopathic effect; higher = more antiviral protection, active = above 15
Conditions: 8.33 nM; 48 h
Some molecules, each annotated with its measured inhibition of SARS-CoV-2 cytopathic effect.
RESULT TYPE: inhibition of SARS-CoV-2 cytopathic effect (%)

MOLECULE	RESULT
NC(=O)[C@@H](CCC(F)(F)F)N(Cc1ccc(-c2ncon2)cc1F)S(=O)(=O)c1ccc(Cl)cc1	-2.98
CCOc1nc2cccc(C(=O)OC(C)OC(=O)OC3CCCCC3)c2n1Cc1ccc(-c2ccccc2-c2nn[nH]n2)cc1 (stereo not drawn)	-0.29
CC(C)c1ccc(NC(=O)c2cccs2)c(-c2nc3ccccc3[nH]c2=O)c1	-0.5
Cc1cccc(C)c1NC(=O)[C@@H](C)N [tocainide]	0.17
CC(C)Oc1ccc2c(=O)c3cc(C(=O)O)ccc3oc2c1	-1.43
O=C(Nc1ccccc1)c1ccccc1O [salicylanilide]	-2.22
COCc1nnc(N2CC(Oc3ccc(F)cc3Cl)C2)n1-c1ccc(OC)nc1	-3.96
Nc1nc(Nc2ccc(S(N)(=O)=O)cc2)nn1C(=O)c1c(F)cccc1F	1.33
CC1CS(=O)(=O)CCN1/N=C/c1ccc([N+](=O)[O-])o1 (stereo not drawn)	0.8
C1CCC(/N=C(\NC23CC4CC(CC(C4)C2)C3)N2CCOCC2)CC1	1.31
CC#CC(=O)N1CC[C@@H](n2c(=O)n(-c3ccc(Oc4ccccc4)cc3)c3c(N)ncnc32)C1	2.19
CC(C)[C@H](NS(=O)(=O)c1ccc(-c2ccc(Br)cc2)cc1)C(=O)O	0.67
COc1ccccc1OC(=O)C(C)c1ccc(CC(C)C)cc1 (stereo not drawn) [metoxibutropate]	-2.87

====

inhibition of SARS-CoV-2 cytopathic effect reference
System: Vero E6 infected with SARS-CoV-2
Test: inhibition of SARS-CoV-2 cytopathic effect; higher = more antiviral protection, active = above 15
Settings: 1 nM; 48 h
RESULT TYPE: inhibition of SARS-CoV-2 cytopathic effect

MOLECULE	RESULT
O=C1c2c(O)cccc2Cc2cccc(O)c21	-1.32% (inactive)
CC(C)NC[C@@H](C(=O)N1CCN(c2ncnc3c2[C@H](C)C[C@H]3O)CC1)c1ccc(Cl)cc1	-0.34% (inactive)
COC(=O)c1cc(OC)c2c(c1-c1c(CO)cc(OC)c3c1OCO3)OCO2	-2.07% (inactive)
CCCc1c(OCCCCc2nnn[nH]2)ccc(C(C)=O)c1O	-8.82% (inactive)
O=C1NCCNC1c1cccs1 (centres undefined)	3.34% (inactive)
C[C@H](N)[C@H](O)c1ccc(O)c(O)c1	-3.75% (inactive)
CNS(=O)(=O)Nc1nccc(Cc2c(C)c3ccc(Oc4ncccn4)cc3oc2=O)c1F	-0.25% (inactive)
CC(C)(O)[C@@H]1[C@H]2OC(=O)[C@@H]1[C@]1(O)C[C@H]3O[C@]34C(=O)O[C@H]2[C@]14C	-0.34% (inactive)
CCCCCCCCCCCCCCCC[n+]1ccccc1	1.63% (inactive)

====

Test system: Vero E6 infected with SARS-CoV-2
Assay: inhibition of SARS-CoV-2 cytopathic effect; higher = more antiviral protection, active = above 15
Details: 8.33 nM; 48 h
RESULT TYPE: inhibition of SARS-CoV-2 cytopathic effect (%)

MOLECULE	VALUE UNITS	RESULT
CN1CCN(CCc2ccc(Cl)c(Cl)c2)CC1	%	3.18
Nc1c(CC(=O)O)cccc1C(=O)c1ccccc1	%	0.91
CN1CCCN(C(c2ccccc2)c2ccc(Cl)cc2)CC1 (centres undefined)	%	1.84
O=C(O[C@@H]1Cc2c(O)cc(O)cc2O[C@@H]1c1cc(O)c(O)c(O)c1)c1cc(O)c(O)c(O)c1 [epigallocatechin-gallate-(-)]	%	2.17

====

System: Vero E6 infected with SARS-CoV-2
Experiment: inhibition of SARS-CoV-2 cytopathic effect; higher = more antiviral protection, active = above 15
Details: 8.33 nM; 48 h
Measured inhibition of SARS-CoV-2 cytopathic effect, listed per entry for reference.
RESULT TYPE: inhibition of SARS-CoV-2 cytopathic effect (%)

COMPOUND	VALUE UNITS	RESULT
CC[C@H](C(=O)N1CCCC[C@H]1C(=O)O[C@H](CCc1ccc(OC)c(OC)c1)c1cccc(OCC(=O)NCCNC(=O)COc2cccc([C@@H](CCc3ccc(OC)c(OC)c3)OC(=O)[C@@H]3CCCCN3C(=O)[C@@H](CC)c3cc(OC)c(OC)c(OC)c3)c2)c1)c1cc(OC)c(OC)c(OC)c1	%	-1.9
O=C(Nc1cccc(Cl)c1)c1ccccn1	%	-0.89
COc1cccc2c1C(=O)c1c(O)c3c(c(O)c1C2=O)C[C@@](O)(/C(CO)=N/NC(=O)CCCCCN1C(=O)C=CC1=O)C[C@@H]3O[C@H]1C[C@H](N)[C@H](O)[C@H](C)O1 [aldoxorubicin]	%	-0.32
CC(C)C[C@H](NC(=O)[C@H](CCCCN)NC(=O)[C@H](CCCNC(=N)N)NC(=O)[C@H](C)NC(=O)[C@H](CO)NC(=O)[C@H](CCCCN)NC(=O)[C@H](CCCNC(=N)N)NC(=O)[C@H](C)NC(=O)CNC(=O)[C@@H](NC(=O)[C@H](Cc1ccccc1)NC(=O)CNC(=O)CNC(=O)[C@@H](N)Cc1ccccc1)[C@@H](C)O)C(=O)N[C@@H](C)C(=O)N[C@@H](CC(N)=O)C(=O)N[C@@H](CCC(N)=O)C(=O)O [orphanin-fq]	%	-0.61

====

# inhibition of SARS-CoV-2 cytopathic effect per record follows
Test system: Vero E6 infected with SARS-CoV-2
Experiment: inhibition of SARS-CoV-2 cytopathic effect; higher = more antiviral protection, active = above 15
Conditions: 10000 nM; 48 h
RESULT TYPE: inhibition of SARS-CoV-2 cytopathic effect (%)

MOLECULE	RESULT
COc1cc(/C=C/C(=O)O)ccc1O [ferulic-acid]	-0.17
CCN(CC)CCCC(C)Nc1c2ccc(Cl)cc2nc2ccc(OC)cc12 (configuration not stated) [mepacrine]	-17.4
Cc1ccc(C(=O)c2ccc(CC(=O)O)n2C)cc1 [tolmetin]	0.75
O=c1[nH]cnc2c1cnn2[C@@H]1O[C@H](CO)[C@@H](O)[C@H]1O [allopurinol-riboside]	1.75
CC(C)[C@@H]1CC[C@@H](C)C[C@H]1O [levomenthol]	-0.2
CCc1cc(/C(C)=N/OCc2ccc(C3CCCCC3)c(C(F)(F)F)c2)ccc1CN1CC(C(=O)O)C1 [siponimod]	1.37
CO[C@@H](C(=O)N1Cc2[nH]nc(NC(=O)c3ccc(N4CCN(C)CC4)cc3)c2C1)c1ccccc1 [danusertib]	-3.74

====

System: Vero E6 infected with SARS-CoV-2
Assay: morphology score (similarity to uninfected cells); higher = more like uninfected cells
Details: 24 h
RESULT TYPE: morphology score

COMPOUND	RESULT TYPE	RESULT
COc1ccc(CN2C(=O)C(=O)c3cc(OC(F)(F)F)ccc32)cc1 (0.833333 µM)	morphology score	0.0284
O=c1cccc2n1C[C@@H]1CNC[C@H]2C1 [cytisine] (10 µM)	morphology score	0.0351
CC(C)c1nnc(-c2ccc(-c3ccccc3)nc2)n1-c1cccc2nonc12 (10 µM)	morphology score	-0.103
C#C[C@]1(O)CC[C@H]2[C@@H]3CCc4cc(O)ccc4[C@H]3CC[C@@]21C (10 µM)	morphology score	0.128
COC1CCN(c2cccc(-c3cc(NC(C)=O)nc(-n4nc(C)cc4C)n3)n2)CC1 (10 µM)	morphology score	-0.0121
COC1=C2C[C@@H](C)C[C@H](OC)[C@H](O)[C@@H](C)/C=C(\C)[C@H](OC(N)=O)[C@@H](OC)/C=C\C=C(/C)C(=O)NC(=CC1=O)C2=O [geldanamycin] (0.833333 µM)	morphology score	-0.177
CNCC[C@H](Oc1cccc2ccccc12)c1cccs1 [duloxetine] (10 µM)	morphology score	0.747
Cc1ccc(OC[C@@H](O)[C@H](C)NC(C)C)c2c1CCC2 (racemic) (10 µM)	morphology score	-0.0205
NC(=O)c1cccc2cn(-c3ccc([C@@H]4CCCNC4)cc3)nc12 [niraparib] (0.833333 µM)	morphology score	0.0643
COC(=O)N[C@H](C(=O)N1CCC[C@H]1c1nc(-c2ccc3c(c2)O[C@@H](c2ccccc2)n2c-3cc3cc(-c4c[nH]c([C@@H]5CCCN5C(=O)[C@@H](NC(=O)OC)C(C)C)n4)ccc32)c[nH]1)C(C)C [elbasvir] (10 µM)	morphology score	-0.17
c1cnc(SCc2cccnc2)nc1 [tasuldine] (10 µM)	morphology score	0.175

====

Reported inhibition of SARS-CoV-2 cytopathic effect values follow for various molecules
Test system: Vero E6 infected with SARS-CoV-2
Experiment: inhibition of SARS-CoV-2 cytopathic effect; higher = more antiviral protection, active = above 15
Settings: 1 nM; 48 h
RESULT TYPE: inhibition of SARS-CoV-2 cytopathic effect (%)

MOLECULE	RESULT
CCOC(=O)c1c(C)n(C)c2ccc(O)cc12 [mecarbinate]	-0.79
CC(C)[C@@]1(NC(=O)[C@@H]2C[C@@H]3c4cccc5[nH]cc(c45)C[C@H]3N(C)C2)O[C@@]2(O)[C@@H]3CCCN3C(=O)[C@H](Cc3ccccc3)N2C1=O [dihydroergocristine]	3.37
Brc1c(NC2=NCCN2)ccc2nccnc12	4.55
O=C(OCCN1CCOCC1)C1(c2ccccc2)CCCCC1	3.24
Cc1ncc(C)n2nc([C@@H]3C[C@H]3c3nc4c5cccnc5ccn4c3C)nc12	0.4

Origin of measurements: the supplement of paper PMC13380429
